- Tested on: Mus musculus
- Assay summary: Analgesic activity in mouse assessed as inhibition of acetic acid-induced writhing at 70 mg/kg, ig administered 1 hr before acetic acid challenge measured after 15 mins
- Format: functional
- Condition info: po, route intragastric
Please mark true (1) if the recorded inhibition in vivo at 70 mg/kg is equal to or greater than 60%, and false (0) if it falls below.

- CC1(C)O[C@H]2CC(=O)OC[C@]23[C@H]2CC[C@]4(C)C(=CC(=O)O[C@H]4c4ccoc4)[C@]2(C)/C(=N\OCCN2CCCCC2)C[C@@H]13.Cl: false (0)
- CCN(CC)CCO/N=C1/C[C@H]2C(C)(C)O[C@H]3CC(=O)OC[C@]32[C@H]2CC[C@@]3(C)[C@H](c4ccoc4)OC(=O)[C@H]4O[C@]43[C@]12C.Cl: true (1)
- CC1(C)O[C@H]2CC(=O)OC[C@@]23[C@H]1CC(=O)[C@@]1(C)C2=CC(=O)O[C@H](c4ccoc4)[C@]2(C)CC[C@@H]13: false (0)
- CN(C)CCO/N=C1/C[C@H]2C(C)(C)O[C@H]3CC(=O)OC[C@]32[C@H]2CC[C@]3(C)C(=CC(=O)O[C@H]3c3ccoc3)[C@]12C.Cl: false (0)
- CN(C)CCO/N=C1/C[C@H]2C(C)(C)O[C@H]3CC(=O)OC[C@]32[C@H]2CC[C@@]3(C)[C@H](c4ccoc4)OC(=O)[C@H]4O[C@]43[C@]12C.Cl: true (1)
- CC1(C)O[C@H]2CC(=O)OC[C@]23[C@H]2CC[C@@]4(C)[C@H](c5ccoc5)OC(=O)[C@H]5O[C@]54[C@]2(C)/C(=N\OCCN2CCCCC2)C[C@@H]13.Cl: true (1)
- CCN(CC)CCO/N=C1/C[C@H]2C(C)(C)O[C@H]3CC(=O)OC[C@]32[C@H]2CC[C@]3(C)C(=CC(=O)O[C@H]3c3ccoc3)[C@]12C.Cl: false (0)
- CC1(C)O[C@H]2CC(=O)OC[C@]23[C@H]2CC[C@@]4(C)[C@H](c5ccoc5)OC(=O)[C@H]5O[C@]54[C@]2(C)C(=O)C[C@@H]13: false (0)

Consider now this further compound.
**Query** In plain terms: is recorded inhibition in vivo at 70 mg/kg at least 60% for CC1(C)O[C@H]2CC(=O)OC[C@]23[C@H]2CC[C@@]4(C)[C@H](c5ccoc5)OC(=O)[C@H]5O[C@]54[C@]2(C)/C(=N\OCCN2CCOCC2)C[C@@H]13.Cl ?
**Result** false (0)

---

- Assay summary: Intrinsic aqueous solubility of the compound
- Format: physicochemical
- Condition info: read-out: Intrinsic_solubility
The following compounds are listed with their measured solubility values.
Numeric answer plus unit only.

• CCN(CC)CCO/N=C1/C[C@H]2C(C)(C)O[C@H]3CC(=O)OC[C@]32[C@H]2CC[C@@]3(C)[C@H](c4ccoc4)OC(=O)[C@H]4O[C@]43[C@]12C.Cl = 14.5 mg/mL
• CN(C)CCO/N=C1/C[C@H]2C(C)(C)O[C@H]3CC(=O)OC[C@]32[C@H]2CC[C@@]3(C)[C@H](c4ccoc4)OC(=O)[C@H]4O[C@]43[C@]12C.Cl = 17.8 mg/mL
• CN(C)CCO/N=C1/C[C@H]2C(C)(C)O[C@H]3CC(=O)OC[C@]32[C@H]2CC[C@]3(C)C(=CC(=O)O[C@H]3c3ccoc3)[C@]12C.Cl = 28.9 mg/mL
• CN(C)CCCO/N=C1/C[C@H]2C(C)(C)O[C@H]3CC(=O)OC[C@]32[C@H]2CC[C@]3(C)C(=CC(=O)O[C@H]3c3ccoc3)[C@]12C.Cl = 9.4 mg/mL

// moving on: another record for solubility
**Query** GET /values?readout=solubility&item= CCN(CC)CCO/N=C1/C[C@H]2C(C)(C)O[C@H]3CC(=O)OC[C@]32[C@H]2CC[C@]3(C)C(=CC(=O)O[C@H]3c3ccoc3)[C@]12C.Cl
**Result** 1.9 mg/mL

---

- Assay summary: Intrinsic aqueous solubility of the compound
- Format: physicochemical
- Condition info: read-out: Intrinsic_solubility
Please mark Yes if the recorded solubility is equal to or greater than 4000 µg/mL, and No if it falls below.

- CC1(C)O[C@H]2CC(=O)OC[C@]23[C@H]2CC[C@]4(C)C(=CC(=O)O[C@H]4c4ccoc4)[C@]2(C)/C(=N\OCCN2CCCCC2)C[C@@H]13.Cl: Yes

**Query** In plain terms: is recorded solubility at least 4000 µg/mL for CN(C)CCCO/N=C1/C[C@H]2C(C)(C)O[C@H]3CC(=O)OC[C@]32[C@H]2CC[C@@]3(C)[C@H](c4ccoc4)OC(=O)[C@H]4O[C@]43[C@]12C.Cl ?
**Result** Yes

**Query** In plain terms: is recorded solubility at least 4000 µg/mL for CC1(C)O[C@H]2CC(=O)OC[C@]23[C@H]2CC[C@@]4(C)[C@H](c5ccoc5)OC(=O)[C@H]5O[C@]54[C@]2(C)/C(=N\OCCN2CCOCC2)C[C@@H]13.Cl ?
**Result** Yes

**Query** In plain terms: is recorded solubility at least 4000 µg/mL for CC1(C)O[C@H]2CC(=O)OC[C@]23[C@H]2CC[C@]4(C)C(=CC(=O)O[C@H]4c4ccoc4)[C@]2(C)/C(=N\OCCN2CCOCC2)C[C@@H]13.Cl ?
**Result** No

**Query** In plain terms: is recorded solubility at least 4000 µg/mL for CC1(C)O[C@H]2CC(=O)OC[C@]23[C@H]2CC[C@@]4(C)[C@H](c5ccoc5)OC(=O)[C@H]5O[C@]54[C@]2(C)/C(=N\OCCN2CCCCC2)C[C@@H]13.Cl ?
**Result** Yes

---

- Tested on: Mus musculus
- Assay summary: Antiinflammatory activity in mouse assessed as inhibition of xylene-induced ear swelling at 100 mg/kg, ig administered 90 mins prior to xylene challenge measured after 30 mins
- Type: functional
- Condition info: po, route intragastric
Recorded endpoint: inhibition in vivo at 100 mg/kg (%)
Number only, in %; omit the unit.

A selection of reference data follows.
• CN(C)CCCO/N=C1/C[C@H]2C(C)(C)O[C@H]3CC(=O)OC[C@]32[C@H]2CC[C@@]3(C)[C@H](c4ccoc4)OC(=O)[C@H]4O[C@]43[C@]12C.Cl = 46.1
• CC1(C)O[C@H]2CC(=O)OC[C@]23[C@H]2CC[C@@]4(C)[C@H](c5ccoc5)OC(=O)[C@H]5O[C@]54[C@]2(C)C(=O)C[C@@H]13 = 32.7
• CC1(C)O[C@H]2CC(=O)OC[C@@]23[C@H]1CC(=O)[C@@]1(C)C2=CC(=O)O[C@H](c4ccoc4)[C@]2(C)CC[C@@H]13 = 15.9

**Query** GET /values?readout=inhibition in vivo at 100 mg/kg&item= CC1(C)O[C@H]2CC(=O)OC[C@]23[C@H]2CC[C@@]4(C)[C@H](c5ccoc5)OC(=O)[C@H]5O[C@]54[C@]2(C)/C(=N\OCCN2CCOCC2)C[C@@H]13.Cl
**Result** 53

---

The following compounds are listed with their measured pKa values.
- Assay summary: Dissociation constant, pKa of the compound
- Assay type: physicochemical

- CC1(C)O[C@H]2CC(=O)OC[C@]23[C@H]2CC[C@@]4(C)[C@H](c5ccoc5)OC(=O)[C@H]5O[C@]54[C@]2(C)/C(=N\OCCN2CCCCC2)C[C@@H]13.Cl: 8.87

**Query** GET /values?readout=pKa&item= CN(C)CCCO/N=C1/C[C@H]2C(C)(C)O[C@H]3CC(=O)OC[C@]32[C@H]2CC[C@@]3(C)[C@H](c4ccoc4)OC(=O)[C@H]4O[C@]43[C@]12C.Cl
**Result** 9.28

**Query** GET /values?readout=pKa&item= CN(C)CCCO/N=C1/C[C@H]2C(C)(C)O[C@H]3CC(=O)OC[C@]32[C@H]2CC[C@]3(C)C(=CC(=O)O[C@H]3c3ccoc3)[C@]12C.Cl
**Result** 9.39

**Query** GET /values?readout=pKa&item= CN(C)CCO/N=C1/C[C@H]2C(C)(C)O[C@H]3CC(=O)OC[C@]32[C@H]2CC[C@@]3(C)[C@H](c4ccoc4)OC(=O)[C@H]4O[C@]43[C@]12C.Cl
**Result** 8.78

**Query** GET /values?readout=pKa&item= CCN(CC)CCO/N=C1/C[C@H]2C(C)(C)O[C@H]3CC(=O)OC[C@]32[C@H]2CC[C@@]3(C)[C@H](c4ccoc4)OC(=O)[C@H]4O[C@]43[C@]12C.Cl
**Result** 9.17

---

- Assay summary: Dissociation constant, pKa of the compound
- Type: physicochemical
Please mark Satisfied if the recorded pKa is equal to or greater than 7, and Not satisfied if it falls below.

Use the examples below as a reference point.
* CCN(CC)CCO/N=C1/C[C@H]2C(C)(C)O[C@H]3CC(=O)OC[C@]32[C@H]2CC[C@]3(C)C(=CC(=O)O[C@H]3c3ccoc3)[C@]12C.Cl | Satisfied
* CN(C)CCO/N=C1/C[C@H]2C(C)(C)O[C@H]3CC(=O)OC[C@]32[C@H]2CC[C@]3(C)C(=CC(=O)O[C@H]3c3ccoc3)[C@]12C.Cl | Satisfied
* CC1(C)O[C@H]2CC(=O)OC[C@]23[C@H]2CC[C@@]4(C)[C@H](c5ccoc5)OC(=O)[C@H]5O[C@]54[C@]2(C)/C(=N\OCCN2CCOCC2)C[C@@H]13.Cl | Not satisfied

**Query** In plain terms: is recorded pKa at least 7 for CC1(C)O[C@H]2CC(=O)OC[C@]23[C@H]2CC[C@]4(C)C(=CC(=O)O[C@H]4c4ccoc4)[C@]2(C)/C(=N\OCCN2CCCCC2)C[C@@H]13.Cl ?
**Result** Satisfied
